System: SW982 (Other Solid Carcinomas);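 also: after 72 h of two-drug dosing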
Assay Overview: Bliss excess, mean over the matrix (fraction); higher = more synergy
Think of -0.03 as a floor: if Bliss excess stands on it or above, it is Yes; beneath it, No.

- Compound: "Cc1c2c(nn1C)CSCc1cc(n(C)n1)CSc1cc(c3ccccc3c1)OCCCc1c(C(=O)O)n(C)c3c-2c(Cl)ccc13 [AZD5991] + Cn1cnc2c(F)c(Nc3ccc(Br)cc3Cl)c(C(=O)NOCCO)cc21 [Selumetinib] (first compound max 1 µM, 7x7, partner max 3 µM)"
  Assigned Class: "Yes"
- Compound: "CC(=O)c1c(C)c2cnc(Nc3ccc(N4CCNCC4)cn3)nc2n(C2CCCC2)c1=O [Palbociclib] + Cc1c2c(nn1C)CSCc1cc(n(C)n1)CSc1cc(c3ccccc3c1)OCCCc1c(C(=O)O)n(C)c3c-2c(Cl)ccc13 [AZD5991] (first compound max 10 µM, 7x7, partner max 1 µM)"
  Assigned Class: "Yes"
- Compound: "CC1(C)CCC(CN2CCN(c3ccc(C(=O)NS(=O)(=O)c4ccc(NCC5CCOCC5)c([N+](=O)[O-])c4)c(Oc4cnc5[nH]ccc5c4)c3)CC2)=C(c2ccc(Cl)cc2)C1 [Venetoclax] + Cc1cc2ncnn2cc1Nc1ncc2c(n1)n(C1CCOCC1)c(=O)n2C [AZD7648] (first compound max 1 µM, 7x7, partner max 10 µM)"
  Assigned Class: "Yes"
- Compound: "Cn1cnc2c(F)c(Nc3ccc(Br)cc3Cl)c(C(=O)NOCCO)cc21 [Selumetinib] + CCN(CCO)CCCOc1ccc2c(Nc3cc(CC(=O)Nc4cccc(F)c4)[nH]n3)ncnc2c1 [AZD2811] (first compound max 10 µM, 7x7, partner max 1 µM)"
  Assigned Class: "No"

Input line: Has N#Cc1cnc(Nc2cc(NC[C@H]3CNCCO3)c(C(F)(F)F)cn2)cn1 [SRA737] + Nc1ccn([C@@H]2O[C@H](CO)[C@@H](O)C2(F)F)c(=O)n1 [Gemcitabine] (first compound max 10 µM, 7x7, partner max 0.3 µM) a recorded Bliss excess greater than or equal to -0.03?
Output line: Yes

Input line: Also COc1cccc(OCCCN)c1-c1cc(Nc2cnc(C#N)cn2)n[nH]1 [Prexasertib] + CN(C)CCCOc1ccc(-c2ccc3ncc4c(c3c2)n(C2CCOCC2)c(=O)n4C)cn1 [AZD0156] (first compound max 1 µM, 7x7, partner max 1 µM) , if possible.
Output line: No

Input line: Also Cn1cnc2c(F)c(Nc3ccc(Br)cc3Cl)c(C(=O)NOCCO)cc21 [Selumetinib] + C[C@@H]1COCCN1C2=NC(=NC(=C2)C3(CC3)[S@](=N)(=O)C)C4=C5C=CNC5=NC=C4 [AZD6738] (first compound max 10 µM, 7x7, partner max 10 µM) , if possible.
Output line: No

Input line: Also Cn1cnc2c(F)c(Nc3ccc(Br)cc3Cl)c(C(=O)NOCCO)cc21 [Selumetinib] + CC(C)n1c(=O)n(C)c2cnc3cc(F)c(-c4ccc(OCCCN5CCCCC5)nc4)cc3c21 [AZD1390] (first compound max 10 µM, 7x7, partner max 0.3 µM) , if possible.
Output line: No

Input line: Also Cc1c2c(nn1C)CSCc1cc(n(C)n1)CSc1cc(c3ccccc3c1)OCCCc1c(C(=O)O)n(C)c3c-2c(Cl)ccc13 [AZD5991] + C=CCn1c(=O)c2cnc(Nc3ccc(N4CCN(C)CC4)cc3)nc2n1-c1cccc(C(C)(C)O)n1 [AZD1775] (first compound max 1 µM, partner max 1 µM) , if possible.
Output line: No

Input line: Also NC1(C(=O)N[C@@H](CCO)c2ccc(Cl)cc2)CCN(c2ncnc3[nH]ccc23)CC1 [Capivasertib] + CCN(CCO)CCCOc1ccc2c(Nc3cc(CC(=O)Nc4cccc(F)c4)[nH]n3)ncnc2c1 [AZD2811] (first compound max 10 µM, 7x7, partner max 1 µM) , if possible.
Output line: Yes

Input line: Also C[C@@H](Oc1cc(-c2cnn(C3CCNCC3)c2)cnc1N)c1c(Cl)ccc(F)c1Cl [Crizotinib] + Cn1cnc2c(F)c(Nc3ccc(Br)cc3Cl)c(C(=O)NOCCO)cc21 [Selumetinib] (first compound max 10 µM, 7x7, partner max 10 µM) , if possible.
Output line: Yes

Input line: Also C[C@@H](c1ccc2nccn2c1)n1nnc2ncc(-c3cnn(C)c3)nc21 [Savolitinib] + CC1(C)CCC(CN2CCN(c3ccc(C(=O)NS(=O)(=O)c4ccc(NCC5CCOCC5)c([N+](=O)[O-])c4)c(Oc4cnc5[nH]ccc5c4)c3)CC2)=C(c2ccc(Cl)cc2)C1 [Venetoclax] (first compound max 1 µM, 7x7, partner max 1 µM) , if possible.
Output line: No

Input line: Also CC1(C)CCC(CN2CCN(c3ccc(C(=O)NS(=O)(=O)c4ccc(NCC5CCOCC5)c([N+](=O)[O-])c4)c(Oc4cnc5[nH]ccc5c4)c3)CC2)=C(c2ccc(Cl)cc2)C1 [Venetoclax] + COc1cc(Nc2ncc3c(n2)-c2ccc(Cl)cc2C(c2c(F)cccc2OC)=NC3)ccc1C(=O)O [Alisertib] (first compound max 1 µM, 7x7, partner max 10 µM) , if possible.
Output line: No

Input line: Also Cc1nc(Nc2ncc(C(=O)Nc3c(C)cccc3Cl)s2)cc(N2CCN(CCO)CC2)n1 [Dasatinib] + CC(=O)Nc1cccc(-n2c(=O)n(C3CC3)c(=O)c3c(Nc4ccc(I)cc4F)n(C)c(=O)c(C)c32)c1 [Trametinib] (first compound max 2 µM, 7x7, partner max 1 µM) , if possible.
Output line: No

This collection of values is drawn from the supplement of paper PMC11061612.
